Data origin, for the record: patent US20260256925A1

# protocolText: Cell growth assay, WST-8 (compounds B1-B126)
# Assay type: cell-based
# conditionDescription: 96 h; T47D cell line, WST-8, 4 days; read-out: Cell growth inhibition in T47D cell line IC50
pIC50: −log10 of the molar value.
// reported pIC50 per item

compound="COc1cc(N2CCC3(CC2)CC(CN2CCN4c5cc6c(cc5OC[C@@H]4C2)C(=O)N(C2CCC(=O)NC2=O)C6)CO3)ccc1[C@@H]1c2ccc3[nH]ncc3c2C[C@@H](C)N1CC(F)F (stereo partly drawn)" observedmeasurement="> 9.00"
compound="C[C@@H]1Cc2c(ccc3[nH]ncc23)[C@@H](c2c(F)cc(NC3CC4(C3)CN(C(=O)CN3CCN5c6cc7c(cc6OC[C@@H]5C3)C(=O)N(C3CCC(=O)NC3=O)C7)C4)cc2F)N1CC(F)F (stereo partly drawn)" observedmeasurement="> 9.00"

With those in mind, consider the next compound.
Lab note: measured pIC50 of C[C@@H]1Cc2c(ccc3[nH]ncc23)[C@@H](c2ccc(N3CC4(CCC(CN5CCN6c7ccc8c(c7OC[C@H]6C5)CN(C5CCC(=O)NC5=O)C8=O)CC4)C3)cn2)N1CC(F)(F)F (stereo partly drawn) was > 9.00

* * *

# protocolText: Cell growth assay, WST-8 (compounds B1-B126)
# Format: cell-based
# conditionDescription: 96 h; T47D cell line, WST-8, 4 days; read-out: Cell growth inhibition in T47D cell line IC50
# Description: Cell Growth Assay. The cells are seeded at certain concentration (e.g., at 1500/well) in multi-well plates overnight. Cells are subsequently treated with the compounds. […] The absorbance is measured on each sample using a microplate reader at certain wavelength (e.g., 450 nm). The relative absorbance is calculated against the vehicle control from three individually repeats. Cell Growth Assay. […] The absorbance was measured of each sample using a microplate reader at a wavelength of 450 nm. […]
pIC50: −log10 of the molar value.
reportedEndpoint: pIC50

compound="COc1cc(N2CCC3(CCN(C(=O)CN4Cc5cc6c(cc5C4)C(=O)N(C4CCC(=O)NC4=O)C6=O)CC3)CC2)ccc1[C@@H]1c2ccc3[nH]ncc3c2C[C@@H](C)N1CC(F)F (stereo partly shown)" observedmeasurement="8.00 to 9.00"

Lab note: measured pIC50 of COc1cc(N2CCC3(CC2)CC(CN2CCN4c5ccc6c(c5OC[C@H]4C2)CN([C@H]2CCC(=O)NC2=O)C6=O)CO3)ccc1[C@@H]1c2ccc3[nH]ncc3c2C[C@@H](C)N1CC(F)F (stereo partly shown) was > 9.00

Lab note: measured pIC50 of C[C@@H]1Cc2c(ccc3[nH]ncc23)[C@@H](c2ccc(N3CCC(CN4CCC5(CC4)COc4c(ccc6c4CN([C@H]4CCC(=O)NC4=O)C6=O)O5)CC3)cn2)N1CC(F)(F)F was > 9.00

Lab note: measured pIC50 of C[C@@H]1Cc2c(ccc3[nH]ncc23)[C@@H](c2ccc(N3CCC4(CCN(CC(=O)N5Cc6cc7c(cc6C5)C(=O)N(C5CCC(=O)NC5=O)C7)CC4)CC3)cn2)N1CC(F)(F)F (stereo partly shown) was 8.00 to 9.00

Lab note: measured pIC50 of C[C@@H]1Cc2c(ccc3[nH]ncc23)[C@@H](c2ccc(N3CC4(CCC(CN5CCN6c7ccc8c(c7OC[C@H]6C5)CN(C5CCC(=O)NC5=O)C8=O)CC4)C3)cn2)N1CC(F)F (stereo partly shown) was 8.00 to 9.00
